Items are presented alongside their recorded FS CDK4/CDK2.
biological target: Cyclin Dependent Kinase 4/Cyclin D3 (CDK4-cycD3) (Homo sapiens, UniProt P11802); construct: purchased Carna Biosciences 04-105; experiment: CDK4-cycD3 TR-FRET (LANCE) enzyme assay; type: biochemical; details: Table S, fold selectivity, enzymatic Ki ratio
Sequence (P11802 whole entry): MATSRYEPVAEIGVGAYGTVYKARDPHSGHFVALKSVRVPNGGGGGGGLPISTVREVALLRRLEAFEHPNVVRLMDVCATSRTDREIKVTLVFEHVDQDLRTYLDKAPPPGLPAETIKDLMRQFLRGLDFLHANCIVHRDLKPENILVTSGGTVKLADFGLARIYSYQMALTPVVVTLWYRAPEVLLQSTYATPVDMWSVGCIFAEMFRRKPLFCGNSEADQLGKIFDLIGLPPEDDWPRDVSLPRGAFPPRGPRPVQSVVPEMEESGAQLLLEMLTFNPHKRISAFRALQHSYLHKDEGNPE
Sequence (P30281 whole entry partner): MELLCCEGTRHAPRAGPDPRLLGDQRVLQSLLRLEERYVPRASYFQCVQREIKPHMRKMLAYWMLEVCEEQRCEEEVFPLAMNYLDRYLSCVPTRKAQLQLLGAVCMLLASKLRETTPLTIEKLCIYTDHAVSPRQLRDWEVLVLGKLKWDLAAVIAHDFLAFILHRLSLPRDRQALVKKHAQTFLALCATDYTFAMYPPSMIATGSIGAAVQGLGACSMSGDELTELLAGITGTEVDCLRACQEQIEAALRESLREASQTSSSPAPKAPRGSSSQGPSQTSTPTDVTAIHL
Just the number, please, no unit attached.

Consider the worked cases shown below.
CC(C)(C)NC(=O)O[C@@H]1CC[C@H](c2cc(Nc3ccncc3)n[nH]2)C1 : 55
Cc1ncccc1Nc1cc([C@H]2CC[C@@H](OC(=O)NC(C)(C)C)C2)[nH]n1 : 160
Cc1ccncc1Nc1cc([C@H]2CC[C@@H](OC(=O)NC(C)(C)C)C2)[nH]n1 : 170

Input: If you can, please state the reported FS CDK4/CDK2 value of Cc1ccc(Nc2cc([C@H]3CC[C@@H](OC(=O)NC(C)(C)C)C3)[nH]n2)cn1 .
Output: 37

Input: Query (molecule): CNC(=O)c1ccnc(Nc2cc([C@H]3CC[C@@H](OC(=O)NC(C)(C)C)C3)[nH]n2)c1 ; field requested: FS CDK4/CDK2
Output: 15

Input: Look up FS CDK4/CDK2: CC(C)(C)NC(=O)O[C@@H]1CC[C@H](c2cc(Nc3ncccn3)n[nH]2)C1
Output: 4.4

Input: Which FS CDK4/CDK2 value is on record for CC(C)(C)NC(=O)O[C@@H]1CC[C@H](c2cc(Nc3cccnn3)n[nH]2)C1 ?
Output: 13

Input: What FS CDK4/CDK2 value was documented for this molecule, CC(C)(C)NC(=O)O[C@@H]1CC[C@H](c2cc(Nc3ccccc3)n[nH]2)C1 [Comparator E, reference compound] ?
Output: 44

Input: Query (molecule): CNC(=O)c1ccc(Nc2cc([C@H]3CC[C@@H](OC(=O)NC(C)(C)C)C3)[nH]n2)nc1 ; field requested: FS CDK4/CDK2
Output: 53

Input: Can you look up the measured FS CDK4/CDK2 of CC(C)(C)NC(=O)O[C@@H]1CC[C@H](c2cc(Nc3ccccn3)n[nH]2)C1 for me?
Output: 16

Input: Field request: FS CDK4/CDK2 | item: CC(C)NC(=O)O[C@@H]1CC[C@H](c2cc(Nc3cccnc3)n[nH]2)C1
Output: 44

Input: I'd like to know its FS CDK4/CDK2. The molecule in question is Cc1cc(=O)n(C)nc1Nc1cc([C@H]2CC[C@@H](OC(=O)NC(C)(C)C)C2)[nH]n1
Output: 280

Input: # FS CDK4/CDK2 lookup, item Cn1cc(Nc2cc([C@H]3CC[C@@H](OC(=O)NC(C)(C)C)C3)[nH]n2)ccc1=O
Output: 92
